- Test system: SNU-638
- experiment notes: Antiproliferative activity against human SNU-638 cells assessed as reduction in cell growth incubated for 72 hrs by SRB assay
- Type: functional, cell-based
- protocol conditions: SNU-638, 72 h
experimental endpoint: pIC50
pIC50 is defined as minus the log10 of a concentration measured in mol/L.

pIC50 in this record for "C#Cc1cn([C@@H]2S[C@H](CO)[C@@H](O)[C@H]2O)c2ncnc(N)c12" : 7.52

----------
- assay system: PRMT5/MEP50 complex (Homo sapiens, UniProt O14744)
- Sequence (O14744 whole entry): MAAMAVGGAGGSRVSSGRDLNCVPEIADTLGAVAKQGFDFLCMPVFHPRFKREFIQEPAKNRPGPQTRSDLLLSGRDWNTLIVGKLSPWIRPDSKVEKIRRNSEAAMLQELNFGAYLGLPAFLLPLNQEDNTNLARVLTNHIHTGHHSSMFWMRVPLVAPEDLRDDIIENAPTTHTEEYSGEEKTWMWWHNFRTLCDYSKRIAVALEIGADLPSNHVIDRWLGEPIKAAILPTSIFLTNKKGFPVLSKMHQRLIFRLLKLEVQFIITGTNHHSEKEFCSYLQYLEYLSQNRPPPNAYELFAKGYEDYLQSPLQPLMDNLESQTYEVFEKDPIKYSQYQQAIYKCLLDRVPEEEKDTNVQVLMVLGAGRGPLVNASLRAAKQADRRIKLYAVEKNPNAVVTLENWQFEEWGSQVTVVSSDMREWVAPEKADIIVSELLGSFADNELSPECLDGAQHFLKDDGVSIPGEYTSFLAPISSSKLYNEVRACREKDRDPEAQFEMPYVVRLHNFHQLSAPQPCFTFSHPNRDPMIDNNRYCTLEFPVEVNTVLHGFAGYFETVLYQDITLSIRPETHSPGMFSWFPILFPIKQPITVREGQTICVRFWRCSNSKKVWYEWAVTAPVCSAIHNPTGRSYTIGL
- Sequence (Q9BQA1 whole entry, further chain): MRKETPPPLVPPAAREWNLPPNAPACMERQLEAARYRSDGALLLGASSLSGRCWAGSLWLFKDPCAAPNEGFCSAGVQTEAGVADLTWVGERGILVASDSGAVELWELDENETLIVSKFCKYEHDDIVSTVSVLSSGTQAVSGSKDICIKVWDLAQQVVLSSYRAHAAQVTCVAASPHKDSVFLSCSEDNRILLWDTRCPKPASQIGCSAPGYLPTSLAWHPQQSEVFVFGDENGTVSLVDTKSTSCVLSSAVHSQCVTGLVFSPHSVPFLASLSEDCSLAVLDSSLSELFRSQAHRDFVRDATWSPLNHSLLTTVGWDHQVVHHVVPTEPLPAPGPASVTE
- experiment notes: Inhibition of PRMT5/MEP50 (unknown origin)
experimental endpoint: IC50 (nM)
Give the quantity in nM, number only.

1) Nc1ncnc2c1ncn2[C@@H]1OC2(CC[C@H]2O)[C@@H](O)[C@H]1O (some centres not stated) | 900

From here, focus on the item given below.
IC50 in this record for "Cc1ncnc2c1ccn2[C@@H]1O[C@@H]2[C@H](Cc3ccc4cc(Br)c(N)nc4c3)OC[C@]2(O)[C@H]1O" : 0.8
